# System: Candida albicans
# protocol.notes: Antifungal activity against Candida albicans Y0109 assessed as growth inhibition after 24 hr by NCCLS microbroth dilution method
# Type: functional
# setup.conditions: Y0109, 24 h
readout.kind: MIC80 (µg/mL)
State the answer as a number, implicitly in µg/mL.

Query :: Requested read-out: MIC80. Entry: `Cc1cc(=O)oc2cc(Oc3ccc([N+](=O)[O-])cn3)ccc12`
Result :: 64

Query :: Could you tell me which MIC80 is on file for `Cc1cc(=O)oc2cc(Oc3ccc(NC(=O)c4cccs4)cn3)ccc12` ?
Result :: 16

Query :: Entry `Cc1cc(=O)oc2cc(Oc3ccc(NC(=O)CN(C)C)cn3)ccc12` : reported MIC80 = ?
Result :: 16

Query :: Would you kindly share the measured MIC80 for `Cc1cc(=O)oc2cc(Oc3ccc(NC(=O)c4cccnc4)cn3)ccc12` ?
Result :: 32

Query :: Entry `C[C@@H]1[C@H](O)[C@@H](C)/C=C/C=C/C=C/C=C/C=C/C=C/C=C/[C@H](O[C@@H]2O[C@H](C)[C@@H](O)[C@H](N)[C@@H]2O)C[C@@H]2O[C@](O)(C[C@@H](O)C[C@@H](O)[C@H](O)CC[C@@H](O)C[C@@H](O)CC(=O)O[C@H]1C)C[C@H](O)[C@H]2C(=O)O` has what MIC80?
Result :: 0.25

###

Provide the recorded MIC80 for the entries that follow.
# System: Candida albicans
# protocol.notes: Antifungal activity against Candida albicans Y0109 assessed as growth inhibition after 24 hr by NCCLS microbroth dilution method
# Assay type: functional
# setup.conditions: Y0109, 24 h
Report the value in µg/mL with no unit label.

Query :: Find the recorded MIC80 belonging to `Cc1cc(=O)oc2cc(Oc3ccc(NC(=O)c4cnccn4)cn3)ccc12` and report it.
Result :: 4

Query :: Record request: MIC80 value, item `Cc1cc(=O)oc2cc(Oc3ccc(NC(=O)c4ccncc4)cn3)ccc12`
Result :: 16

Query :: Recorded MIC80 of `Cc1cc(=O)oc2cc(Oc3ccc(N)cn3)ccc12` , please.
Result :: 16

Query :: Give its MIC80 value. Item: `CC(=O)Nc1ccc(Oc2ccc3c(C)cc(=O)oc3c2)nc1`
Result :: 1

Query :: For the compound `Cc1cc(=O)oc2cc(Oc3ccc(NC(=O)c4ccccn4)cn3)ccc12` , what MIC80 is on record?
Result :: 16

Query :: MIC80 for `Cc1cc(=O)oc2cc(Oc3ccc(NC(=O)Cc4c[nH]c5ccccc45)cn3)ccc12` ?
Result :: 64

Query :: Using the record for `Cc1cc(=O)oc2cc(Oc3ccc(NC(=O)c4ccco4)cn3)ccc12` , report its MIC80.
Result :: 16

Query :: Requested read-out: MIC80. Entry: `Cc1cc(=O)oc2cc(Oc3ccc(NC(=O)c4ccccc4)cn3)ccc12`
Result :: 4

Query :: For `Cc1cnc(C(=O)Nc2ccc(Oc3ccc4c(C)cc(=O)oc4c3)nc2)cn1` , what is its reported MIC80?
Result :: 16

Query :: # input compound: `Cc1cc(=O)oc2cc(Oc3ccc(NC(=O)CC#N)cn3)ccc12` ; wanted: its MIC80
Result :: 16
